TEST SYSTEM: SpNbp2
METHOD DESCRIPTION: SPOT peptide array binding signal intensity (averaged, normalized) (arbitrary units (background-subtracted, floor 0; scale differs between SH3 domains)); higher = stronger binding of the SH3 domain to the peptide
Kindly state SPOT peptide array binding signal intensity for each of the entries shown.
Please give only the number in your answer, with no unit.

Recorded result, "LLGRKRPVMERVVDI" , SPOT peptide array binding signal intensity: 99.5

"RKNRAPPQRPRFNRD" yielded SPOT peptide array binding signal intensity of 726

For reference, reported SPOT peptide array binding signal intensity for "HGKRRAPLLLAKLDV" stands at 63.5

GET /value?item= "KRRTSLFPWLHKPGI" &field=SPOT peptide array binding signal intensity returns 418

Per the records, this binder ( "LPMNIQPDLPPRKIM" ) has SPOT peptide array binding signal intensity equal to 59

SPOT peptide array binding signal intensity reading for "HKVLRPFLLRRLKKD" : 222

SPOT peptide array binding signal intensity for "RPPRPPPKPLHLRTE" is 22

Recorded result, "KFIPSRPAPKPPSSA" , SPOT peptide array binding signal intensity: 1060

Sample "GRLRPKRIAPWHLIQ" ; SPOT peptide array binding signal intensity observed: 110

Just so you know, measured SPOT peptide array binding signal intensity for "LLIRWLILMPLVGSR" came out at 1450

// SPOT peptide array binding signal intensity value for "LRIKRKPVQTFFEFI" : 370

Documented SPOT peptide array binding signal intensity of "SKAKRPKFLLDLQIK" : 33.5

Note to self: SPOT peptide array binding signal intensity recorded for "RSKRLFPVRPMATAH" was 235
